Parameter self-cleavage: see the listing below.
B1: LINE1-mini (parent)
chain: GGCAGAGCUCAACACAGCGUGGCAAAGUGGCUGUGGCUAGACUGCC

- Variants of: B1
- Protocol: self-cleavage, relative activity (ratio to wild type); higher = more cleavage; in vitro, sequencing; the parent is a self-cleaving ribozyme
Output spec: single numeric token, no unit.

Look over these answered cases.
{"columns": ["Residues", "Observable", "Numeric Value"],
 "data": [
  ["GGCAGAGCUCAACACAGCGUGGCAAAGUGACUGUGGCUAGACUGCU", "self-cleavage", 1.33],
  ["GGCAGAGCUCAACACAGCGUGGCGAAGUGGCUGAGGCUAGACUGCC", "self-cleavage", 0.09],
  ["GGCAGAGCUCAACACAGCGUGGCAAGGAGGCUGUGGCUAGACUGCC", "self-cleavage", 1.25]
]}

Please look up its self-cleavage: GGCAGAGCUCAACACAGUGUGGCAAAGUGGCUGAGGCUAGACUGCC
0.07

Please look up its self-cleavage: GGCAGAGCUCAACACAGCGCGGCAAAGUGGCUCUGGCUAGACUGCC
0.07

Please look up its self-cleavage: GGCAGAGCUCAACACAGCGAGGCAAAGUGGCUGUGGCUAGACCGCC
0.13

Please look up its self-cleavage: GGCAGAGCUCAAAACAGCGUGGCGAAGUGGCUGUGGCUAGACUGCC
0.11

Please look up its self-cleavage: GGCAGAGCUCAACACAGCGUGUCAAAGUGGCUAUGGCUAGACUGCC
0.63

Please look up its self-cleavage: AGCAGAGCUCAACACAGCGUGGCAAAGUGGCUGUGGCUAGACCGCC
0.11

Please look up its self-cleavage: GGCAGAGCUCAUCACAGCGUGGUAAAGUGGCUGUGGCUAGACUGCC
0.34

Please look up its self-cleavage: GGCAGAGCUCAACACAGCGUGGAAAAGUGCCUGUGGCUAGACUGCC
2.68

Please look up its self-cleavage: GGCAGAGCUCAACACAGCGUGGCAAAGUGCCUUUGGCUAGACUGCC
0.07

Please look up its self-cleavage: GGCAGAGCUCAACGCAGCGUGGCAAAGUGGCUGUGGCUAGACGGCC
0.11

Please look up its self-cleavage: GGGAGAGCUUAACACAGCGUGGCAAAGUGGCUGUGGCUAGACUGCC
0.19

Please look up its self-cleavage: GGCAGAGCUCAACACAGAGUGGCAAAGUGUCUGUGGCUAGACUGCC
1.55

Please look up its self-cleavage: GGCAGAGCUCAACACAGCGUGGAAAAGUGGCUGUGGCUAGACUGCG
1.53

Please look up its self-cleavage: GGCAGAGCUCAACACAGCGUGGCAAAGUGGCUGUGACUAGAGUGCC
0.07

Please look up its self-cleavage: GGCAGAGCCCAACACAGCGUGGCAAACUGGCUGUGGCUAGACUGCC
0.03

Please look up its self-cleavage: GGCAGAGCUCAACACAGCGUAGCAAAGUGGCUGGGGCUAGACUGCC
0.64
